Listed below: pIC50 values for each entry.
testedSystem: T1, huNav1.7α + β1-β2-β3 (human, UniProt Q15858 1-1988; A5A6L6 19-218; O60939 30-215; Q2KI11 23-215)
T1 construct: also called huNav1.7-beta1-beta2-beta3; huNav1.7-β1-β2-β3
protocolText: competition FACS vs EC25 of F103275B05(N93R), HEK FlpIn
pIC50 field: float, defined as -log10 of concentration (mol/L).

INSERT INTO measurements (binder, endpointname, number) VALUES
  ('F010302375 (bispecific antibody, also called F0103275B05(E1D, N93R)-50GS-F0103478E09(L108Q)-FLAG3-HIS6) DVQLVESGGGLVQPGGSLRLSCAASGSIFNINSMAWYRRAPGKQRELVASSTNGGSTNYADSVKGRFTISRDNAKRVYLQMNSLTPEDTAVYYCRALLQPSIYDISRTYWGQGTLVTVSSGGGGSGGGGSGGGGSGGGGSGGGGSGGGGSGGGGSGGGGSGGGGSGGGGSEVQLVESGGGLVQAGGSLRLSCAASGRAFSTLAMGWFRQAPGKEREFVAAISRNGNNSATGDSLKGRFTISRDSTKSTVFLQMNTLKPEDTAVYYCAAISTPSASHPYVRKESYRYWGQGTQVTVSSGAADYKDHDGDYKDHDIDYKDDDDKGAAHHHHHH', 'pIC50', 8.00);

Read the next record carefully.
Ask: Quick one: pIC50 of F010302379 (bispecific antibody, also called F0103275B05(E1D, N93R)-50GS-F0103500E03(P14A, L108Q)-FLAG3-HIS6) DVQLVESGGGLVQPGGSLRLSCAASGSIFNINSMAWYRRAPGKQRELVASSTNGGSTNYADSVKGRFTISRDNAKRVYLQMNSLTPEDTAVYYCRALLQPSIYDISRTYWGQGTLVTVSSGGGGSGGGGSGGGGSGGGGSGGGGSGGGGSGGGGSGGGGSGGGGSGGGGSEVQLVESGGGLVQAGGSLRLSCAASGRTFSRYQMGWFRQAPGKEREFVAYISWSGSTRYVDSVKGRFTISRDNAKNTVYLQMNSLKPEDTAVYHCAAGTAGIISSRPETYDSWGQGTQVTVSSGAADYKDHDGDYKDHDIDYKDDDDKGAAHHHHHH ?
Result: 7.80
